These data points were gathered from paper PMC10786891.

Recorded Kd, one value per entry.
system-name: T1, EsCas13d, nuclease-dead (Eubacterium siraeum, UniProt B0MS50, R295A;H300A;R849A;H854A)
T1 sequence: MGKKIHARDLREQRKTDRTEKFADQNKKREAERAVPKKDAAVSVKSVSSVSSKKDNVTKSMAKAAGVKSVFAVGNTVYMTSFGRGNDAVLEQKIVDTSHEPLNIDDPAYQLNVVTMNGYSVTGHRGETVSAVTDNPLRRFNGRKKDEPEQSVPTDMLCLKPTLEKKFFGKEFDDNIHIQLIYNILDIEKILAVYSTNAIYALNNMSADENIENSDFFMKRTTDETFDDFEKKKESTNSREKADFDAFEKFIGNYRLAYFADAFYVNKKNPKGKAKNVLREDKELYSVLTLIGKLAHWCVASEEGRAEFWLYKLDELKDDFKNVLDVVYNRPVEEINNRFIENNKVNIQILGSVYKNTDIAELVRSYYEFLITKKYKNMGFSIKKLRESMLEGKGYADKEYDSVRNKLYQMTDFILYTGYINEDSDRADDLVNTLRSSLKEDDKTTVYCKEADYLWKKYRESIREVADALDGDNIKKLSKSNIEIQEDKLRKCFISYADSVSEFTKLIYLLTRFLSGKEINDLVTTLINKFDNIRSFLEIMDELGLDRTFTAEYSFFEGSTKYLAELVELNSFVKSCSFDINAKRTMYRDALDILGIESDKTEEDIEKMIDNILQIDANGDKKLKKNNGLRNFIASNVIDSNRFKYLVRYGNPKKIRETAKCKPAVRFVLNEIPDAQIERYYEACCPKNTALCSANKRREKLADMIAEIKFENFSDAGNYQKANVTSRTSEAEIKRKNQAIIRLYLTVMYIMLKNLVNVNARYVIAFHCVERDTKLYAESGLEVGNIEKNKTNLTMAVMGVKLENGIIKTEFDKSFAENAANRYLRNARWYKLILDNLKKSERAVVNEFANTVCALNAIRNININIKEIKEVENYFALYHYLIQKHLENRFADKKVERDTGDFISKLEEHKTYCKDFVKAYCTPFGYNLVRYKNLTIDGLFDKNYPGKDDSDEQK
method-summary: crRNA (strand 1, pre-loaded); Mg2+; 40 mM Tris-HCl pH 7.5, 150 mM NaCl, 6 mM MgCl2, 1 mM DTT, 0.1% Tween-20, 0.2 mg/ml BSA; 25 C; 10 min per concentration, then washed
stated-conditions: tags: His6-TwinStrep-SUMO cleaved; N-terminal SNAP kept (SNAP-Surface 488); label: 3' end held by stalled T7 RNA polymerase
Response body: numeric value in nM, unit text excluded.

These recorded examples may help you get a feel for the data.
- target 1 MT 5'PFS UAC 3'PFS AUG (mixed) RNA 1: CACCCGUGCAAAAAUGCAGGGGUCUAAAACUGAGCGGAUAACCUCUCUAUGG RNA 2: GGGAAUGGAUCCACAUCUACGAAUUCUACCCAUAGAGAGGUUAUCCGCUCAAUGAGAUCGGAAGAGCACACGU: 43
- target 1 MT 5'PFS GCC 3'PFS UCC (mixed) RNA 1: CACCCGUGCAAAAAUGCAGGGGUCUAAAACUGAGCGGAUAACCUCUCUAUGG RNA 2: GGGAAUGGAUCCACAUCUACGAAUUCGCCCCAUAGAGAGGUUAUCCGCUCAUCCAGAUCGGAAGAGCACACGU: 12.6

Reported Kd for target 3 U2A,A12G (mixed) RNA 1: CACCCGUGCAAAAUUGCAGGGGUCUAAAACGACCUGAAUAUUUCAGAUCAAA RNA 2: GGGAAUGGAUCCACAUCUACGAAUUCGUUUUUGAUCUGAGAUAUUCAGGACUGCAGAUCGGAAGAGCACACGU : what is it? 38
